target: Human sputum elastase (HSE) / Human Leukocyte Elastase (HLE) (Homo sapiens); construct: Human sputum elastase (HSE ) (Elasten Products Co., Pacific, Mo.); purchased Elasten Products Co., Pacific, Mo; host or cells: human sputum; experiment: Elastase Inhibition--In Vitro Method (hydrolysis of MeO-Suc-Ala-Ala-Pro-Val-pNA, microtiter format); type: biochemical; conditions: 5 ug/mL compound, 0% HSA
Sequence (P08246 30-267): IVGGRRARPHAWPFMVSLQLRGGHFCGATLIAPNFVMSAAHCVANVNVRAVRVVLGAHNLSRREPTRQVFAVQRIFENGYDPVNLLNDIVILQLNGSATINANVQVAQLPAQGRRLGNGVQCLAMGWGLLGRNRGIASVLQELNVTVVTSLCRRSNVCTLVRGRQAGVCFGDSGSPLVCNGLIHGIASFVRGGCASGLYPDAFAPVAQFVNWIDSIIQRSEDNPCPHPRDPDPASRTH
outcome.measure: % inhib. (5 ug/mL) 0% HSA (%)
Quick reminder: number only, in %, skip the unit.

Sample answers from the record:
COc1ccc(CCN(CC(=O)NC(C(=O)C(F)(F)F)C(C)C)C(=O)[C@@H](NC(=O)OCc2ccccc2)C(C)C)cc1OC (stereo partly shown) [3,4-Dimethoxyphenethyl; CBZ]
95.1
COc1ccc(CCN(CC(=O)NC(C(=O)C(F)(F)F)C(C)C)C(=O)[C@@H](NC(=O)c2ccc(C(=O)NS(=O)(=O)c3ccc(Cl)cc3)cc2)C(C)C)cc1OC (stereo partly shown)
98.8
CC(C)C(NC(=O)CN(C(=O)[C@@H](NC(=O)c1ccc(C(=O)NS(=O)(=O)c2ccc(Cl)cc2)cc1)C(C)C)C1CC2CCC1C2)C(=O)C(F)(F)F (stereo partly shown)
99.8

Kindly review the next compound as well.
Response field % inhib. (5 ug/mL) 0% HSA (Human sputum elastase (HSE) / Human Leukocyte Elastase (HLE) (Homo sapiens)) for item CC(C)C(NC(=O)CN(C(=O)[C@@H](NC(=O)OCc1ccccc1)C(C)C)C1CCCC1)C(=O)C(F)(F)F (stereo partly shown) [Cyclopentyl; CBZ] : 100
